Consider the following compounds and their measured inhibition readings.
Test System: Acetylcholinesterase (Homo sapiens) (UniProt P22303)
Sequence (P22303 whole entry): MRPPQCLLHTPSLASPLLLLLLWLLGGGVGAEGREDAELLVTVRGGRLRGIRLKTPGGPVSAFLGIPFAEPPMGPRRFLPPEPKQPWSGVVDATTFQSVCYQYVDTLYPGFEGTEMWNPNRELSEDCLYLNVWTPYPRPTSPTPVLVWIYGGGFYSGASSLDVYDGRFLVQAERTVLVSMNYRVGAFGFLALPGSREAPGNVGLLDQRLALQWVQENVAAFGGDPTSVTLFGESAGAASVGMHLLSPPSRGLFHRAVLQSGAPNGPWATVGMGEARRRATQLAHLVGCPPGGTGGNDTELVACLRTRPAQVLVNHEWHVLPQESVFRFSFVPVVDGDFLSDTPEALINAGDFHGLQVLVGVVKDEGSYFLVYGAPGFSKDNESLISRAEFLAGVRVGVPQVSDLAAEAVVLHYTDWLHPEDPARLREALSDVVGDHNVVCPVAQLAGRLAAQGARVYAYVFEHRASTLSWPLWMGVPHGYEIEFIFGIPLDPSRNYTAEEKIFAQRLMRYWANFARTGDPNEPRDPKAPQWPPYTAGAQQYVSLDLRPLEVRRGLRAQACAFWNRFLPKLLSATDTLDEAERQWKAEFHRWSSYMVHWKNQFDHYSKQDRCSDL
Assay Details: Inhibition of human erythrocyte AChE at 10 uM using acetylthiocholine iodide as substrate preincubated for 20 mins followed by substrate addition and measured after 2.5 mins by DTNB reagent based spectrometric method relative to control
Could you give me the number in %? Just the number is fine.

// solved cases for inhibition follow
Compound | Test System | inhibition (%)
CN1c2ccc(OC(=O)NCCCN3CCOCC3)cc2CN2CCc3ccccc3C21 (stereo unspecified) | Acetylcholinesterase (Homo sapiens) (UniProt P22303) | 2.1
CN1c2ccc(OC(=O)NCCN3CCc4ccccc4C3)cc2CN2CCc3ccccc3C21 (stereo unspecified) | Acetylcholinesterase (Homo sapiens) (UniProt P22303) | 3.9
CN1c2ccc(OC(=O)NCCCCCCCCN3CCc4ccccc4C3)cc2CN2CCc3ccccc3C21 (stereo unspecified) | Acetylcholinesterase (Homo sapiens) (UniProt P22303) | 6.2

stdin: Looking for the measured inhibition of CN1c2ccc(OC(=O)NCCCCCCCCCCN3CCOCC3)cc2CN2CCc3ccccc3C21 (stereo unspecified) , can you help?
stdout: 17.8

stdin: Please look up its inhibition: CN1c2ccc(OC(=O)NCCCCCCn3ccnc3)cc2CN2CCc3ccccc3C21 (stereo unspecified)
stdout: 9.1

stdin: What value of measured inhibition is listed for CN1c2ccc(OC(=O)NCCN3CCOCC3)cc2CN2CCc3ccccc3C21 (stereo unspecified) ?
stdout: 4.1

stdin: What measured inhibition goes with CN1c2ccc(OC(=O)NCCCCCCN3CCN(C(=O)OC(C)(C)C)CC3)cc2CN2CCc3ccccc3C21 (stereo unspecified) ?
stdout: 70.6

stdin: Reported inhibition, compound CN1c2ccc(OC(=O)NCCCCCCN3CCc4ccccc4C3)cc2CN2CCc3ccccc3C21 (stereo unspecified) : ____
stdout: 0.4

stdin: What inhibition value was documented for this compound, CN1c2ccc(OC(=O)NCCCCCCCCN3CCOCC3)cc2CN2CCc3ccccc3C21 (stereo unspecified) ?
stdout: 13.6

stdin: Find the recorded inhibition belonging to CN1c2ccc(OC(=O)NCCCN3CCc4ccccc4C3)cc2CN2CCc3ccccc3C21 (stereo unspecified) and report it.
stdout: 6.4

stdin: Would you mind telling me what inhibition value was observed for CN1c2ccc(OC(=O)NCCCCCCN3CCNCC3)cc2CN2CCc3ccccc3C21 (stereo unspecified) ?
stdout: 35.5

stdin: GET /values?readout=inhibition&item= CN1c2ccc(OC(=O)NCCCCCCn3cnc4ccccc43)cc2CN2CCc3ccccc3C21 (stereo unspecified)
stdout: 28.8

stdin: Quick check: inhibition of CN1c2ccc(OC(=O)NCCCCN3CCc4ccccc4C3)cc2CN2CCc3ccccc3C21 (stereo unspecified) ?
stdout: 6

stdin: Bench note: what inhibition did CN1c2ccc(OC(=O)NCCCCN3CCOCC3)cc2CN2CCc3ccccc3C21 (stereo unspecified) show?
stdout: 16.3

stdin: What value of measured inhibition is listed for CN1c2ccc(OC(=O)NCCCCCCN3CCOCC3)cc2CN2CCc3ccccc3C21 (stereo unspecified) ?
stdout: 26.1

stdin: inhibition lookup needed for CN1c2ccc(OC(=O)NCCCCCCCCCCN3CCc4ccccc4C3)cc2CN2CCc3ccccc3C21 (stereo unspecified) , thanks.
stdout: 5.7
